What follows is a collection of Ki values obtained with Nociceptin receptor (Homo sapiens).
Sequence (P41146 whole entry): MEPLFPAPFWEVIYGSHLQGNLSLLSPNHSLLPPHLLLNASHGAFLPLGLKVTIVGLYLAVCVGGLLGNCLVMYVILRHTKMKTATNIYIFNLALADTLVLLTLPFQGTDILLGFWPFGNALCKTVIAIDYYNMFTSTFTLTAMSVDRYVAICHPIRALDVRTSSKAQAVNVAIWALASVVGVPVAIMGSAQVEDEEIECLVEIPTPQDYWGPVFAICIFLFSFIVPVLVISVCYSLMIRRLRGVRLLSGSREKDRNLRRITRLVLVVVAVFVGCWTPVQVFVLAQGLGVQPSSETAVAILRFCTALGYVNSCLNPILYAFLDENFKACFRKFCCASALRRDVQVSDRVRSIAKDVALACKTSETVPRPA

STRUCTURE_NOTATION	Ki [nM]
NC(=O)[C@]1(c2ccncc2)C[C@H]2CC[C@@H](C1)N2C(c1ccccc1Cl)c1ccccc1Cl	79
NC(=O)[C@@]1(Cc2ccc(F)cc2)C[C@H]2CC[C@@H](C1)N2C(c1ccccc1Cl)c1ccccc1Cl	3
N#Cc1ccc([C@@]2(C(N)=O)C[C@H]3CC[C@@H](C2)N3C(c2ccccc2Cl)c2ccccc2Cl)nc1	75
NC(=O)[C@]1(c2ccc(Br)cn2)C[C@H]2CC[C@@H](C1)N2C(c1ccccc1Cl)c1ccccc1Cl	29

---

MEASURED_ON: Nuclear receptor subfamily 1 group I member 2 (Homo sapiens, UniProt O75469)
Sequence (O75469 whole entry): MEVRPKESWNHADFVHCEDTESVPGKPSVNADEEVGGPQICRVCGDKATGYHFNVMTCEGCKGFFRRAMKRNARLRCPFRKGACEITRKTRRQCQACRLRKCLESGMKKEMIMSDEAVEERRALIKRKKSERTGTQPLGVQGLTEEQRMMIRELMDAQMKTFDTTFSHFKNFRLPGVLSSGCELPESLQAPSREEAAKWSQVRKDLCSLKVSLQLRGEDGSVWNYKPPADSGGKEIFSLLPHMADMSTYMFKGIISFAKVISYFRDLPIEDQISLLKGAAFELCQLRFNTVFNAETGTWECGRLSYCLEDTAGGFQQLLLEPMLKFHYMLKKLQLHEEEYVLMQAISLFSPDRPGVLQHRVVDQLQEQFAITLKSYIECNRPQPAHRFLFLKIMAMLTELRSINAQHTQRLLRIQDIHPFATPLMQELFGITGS
METHOD_DESCRIPTION: Activity at PXR in human hepatocytes assessed as induction of CYP3A4 activity at 1 uM relative rifampicin
Assay type: cell-based, Hepatocyte

STRUCTURE_NOTATION	Ratio
NC(=O)C[C@]1(Cc2ccc(O)cc2)C[C@H]2CC[C@@H](C1)N2C(c1ccccc1Cl)c1ccccc1Cl	0.51
NC(=O)[C@]1(c2cc(CF)c(F)cn2)C[C@H]2CC[C@@H](C1)N2C(c1ccccc1Cl)c1ccccc1Cl	0.77
COC(=O)N[C@]1(c2ccccn2)C[C@H]2CC[C@@H](C1)N2C(c1ccccc1Cl)c1ccccc1Cl	0.98
NC(=O)[C@]1(Cc2ccc(Cl)cc2)C[C@H]2CC[C@@H](C1)N2C(c1ccccc1Cl)c1ccccc1Cl	0.67
